Sourced from ChEMBL document CHEMBL1148545

Target: Cannabinoid receptor 1 (Homo sapiens, UniProt P21554)
Sequence (P21554 whole entry): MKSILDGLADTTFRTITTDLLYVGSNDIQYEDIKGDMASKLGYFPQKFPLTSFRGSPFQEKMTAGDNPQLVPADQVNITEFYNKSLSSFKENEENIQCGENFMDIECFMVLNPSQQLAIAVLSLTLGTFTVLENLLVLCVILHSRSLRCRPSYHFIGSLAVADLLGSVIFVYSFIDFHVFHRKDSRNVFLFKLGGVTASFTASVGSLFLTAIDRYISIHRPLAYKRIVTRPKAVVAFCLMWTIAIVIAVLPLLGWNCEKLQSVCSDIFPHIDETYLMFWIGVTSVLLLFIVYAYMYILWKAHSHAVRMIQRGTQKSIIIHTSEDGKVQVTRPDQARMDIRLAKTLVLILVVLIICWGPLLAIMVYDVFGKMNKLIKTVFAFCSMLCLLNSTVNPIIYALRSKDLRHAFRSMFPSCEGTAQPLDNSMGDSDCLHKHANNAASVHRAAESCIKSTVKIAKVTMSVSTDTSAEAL
Assay: Displacement of [3H]CP-55940 from human recombinant CB1 receptor in presence of hydrolase inhibitor PMSF
assayEndpoint: pKi
Quick note: pKi means taking -log10 of the concentration in moles per liter.

{"compoundString": "CCCCCCCC/C=C\\CCCCCCCC(=O)NCc1ccc(OC)cc1", "pKi": 6.22}

Record summary for `CCCCCCCC/C=C\CCCCCCCC(=O)NCCc1ccc(OC)cc1OC` : reported pKi = 6.22

Record summary for `CCCCCCCC/C=C\CCCCCCCC(=O)NCCc1ccc(OC)cc1` : reported pKi = 6.52

Record summary for `CCCCC/C=C\C/C=C\C/C=C\C/C=C\CCCC(=O)Nc1ccc(N2CCOCC2)cc1` : reported pKi = 6.82

Record summary for `CCCCC/C=C\C/C=C\C/C=C\C/C=C\CCCC(=O)NCc1ccc(OC)cc1OC` : reported pKi = 6.70

Record summary for `CCCCCCCC/C=C\CCCCCCCC(=O)Nc1ccc(OC)cc1` : reported pKi = 5.82

Record summary for `CCCCC/C=C\C/C=C\C/C=C\C/C=C\CCCC(=O)N1CCN(c2ccc(F)cc2)CC1` : reported pKi = 6.52

Record summary for `CCCCCCCC/C=C\CCCCCCCC(=O)NCCc1cc(OC)cc(OC)c1` : reported pKi = 6.00

###

The reader will find reported pKi values listed item by item below.
Molecular target: Cannabinoid receptor 1 (Homo sapiens, UniProt P21554)
Experiment: Displacement of [3H]CP-55940 from human recombinant CB1 receptor
Quick note: pKi means taking -log10 of the concentration in moles per liter.

{"compoundString": "CCCCC/C=C\\C/C=C\\C/C=C\\C/C=C\\CCCC(=O)NCCc1ccc(OC)cc1OC", "testedSystem": "Cannabinoid receptor 1 (Homo sapiens, UniProt P21554)", "pKi": 6.30}

pKi value, target or system Cannabinoid receptor 1 (Homo sapiens, UniProt P21554), for `CCCCCCCC/C=C\CCCCCCCC(=O)NCCc1ccc(OC)cc1OC` : 6.10

pKi value, target or system Cannabinoid receptor 1 (Homo sapiens, UniProt P21554), for `CCCCC/C=C\C/C=C\C/C=C\C/C=C\CCCC(=O)N1CCN(c2ccc(F)cc2)CC1` : 6.52

pKi value, target or system Cannabinoid receptor 1 (Homo sapiens, UniProt P21554), for `CCCCC/C=C\C/C=C\C/C=C\C/C=C\CCCC(=O)NCc1cc(OC)ccc1OC` : 6.30

pKi value, target or system Cannabinoid receptor 1 (Homo sapiens, UniProt P21554), for `CCCCC/C=C\C/C=C\C/C=C\C/C=C\CCCC(=O)NCc1ccc(OC)cc1OC` : 6.70

pKi value, target or system Cannabinoid receptor 1 (Homo sapiens, UniProt P21554), for `CCCCC/C=C\C/C=C\C/C=C\C/C=C\CCCC(=O)Nc1ccc(N2CCOCC2)cc1` : 6.82
